Attribution: patent US8563547B2

Assay: Drug metabolism test: pharmacokinetics in mice
Format: in vivo, ICR mice
Conditions: male, ICR, mouse, plasma, IV (5 mg/kg), read-out: Vz
measurementName: Vd (L/kg)
Kindly provide the numeric value in L/kg only, without the unit symbol.

Using the record for O=C(CN1CCC(Oc2ccc(OC(F)(F)F)cc2)CC1)N[C@@H]1COc2nc([N+](=O)[O-])cn2C1 , report its Vd. 2.3

----------
Test: Drug metabolism test: pharmacokinetics in mice
Assay type: in vivo, ICR mice
Conditions: male, ICR, mouse, IV (5 mg/kg), plasma
measurementName: AUC(0-t) (ng·h/mL)
Just the number please, in ng·h/mL, no unit attached.

# AUC(0-t) lookup, item O=C(CN1CCC(Oc2ccc(OC(F)(F)F)cc2)CC1)N[C@@H]1COc2nc([N+](=O)[O-])cn2C1 7850
